Each entry below carries its recorded EC50.
# target: human mAChR M4 (Homo sapiens, UniProt P08173)
# Construct: expressed in transfected cells
# Sequence (P08173 1-479): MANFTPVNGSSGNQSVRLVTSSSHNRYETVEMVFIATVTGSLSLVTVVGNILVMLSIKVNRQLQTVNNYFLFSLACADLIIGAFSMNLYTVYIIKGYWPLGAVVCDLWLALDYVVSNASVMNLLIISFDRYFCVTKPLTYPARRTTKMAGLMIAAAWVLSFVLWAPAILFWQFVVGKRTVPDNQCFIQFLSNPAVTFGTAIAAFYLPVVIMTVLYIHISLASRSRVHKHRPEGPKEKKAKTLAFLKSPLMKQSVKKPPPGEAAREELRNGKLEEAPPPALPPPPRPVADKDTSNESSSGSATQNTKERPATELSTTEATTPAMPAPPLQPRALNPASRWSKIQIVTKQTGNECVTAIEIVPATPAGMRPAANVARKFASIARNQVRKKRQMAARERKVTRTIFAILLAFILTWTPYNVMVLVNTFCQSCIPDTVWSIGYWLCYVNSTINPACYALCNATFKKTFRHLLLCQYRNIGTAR
# assay.procedure: mAChR M4 cell-based functional assay (calcium mobilization, CHO-K1 hM4-Gqi5 cells)
# study.conditions: positive allosteric modulator activity, increase in the EC20 acetylcholine response, CHO-K1 hM4-Gqi5 cells; read-out: Human M4 EC50
A number alone suffices; assume nM.

Worked examples follow.
- molecule: "Cc1cc(C(=O)NCc2ccncc2)cnc1N1CCc2ncccc2C1"
  EC50 (nM): 1630
- molecule: "Cc1nc(Cl)c(C)c(N2Cc3cc(N4CCCn5nccc54)cnc3C(C)(C)C2)n1"
  EC50 (nM): 616
- molecule: "Cc1c(C#N)nnc(N2CCc3ncc(-c4ccc(N5CC(C(C)(C)O)C5)nc4)cc3C2)c1C"
  EC50 (nM): 554
- molecule: "Cc1cc(C#N)cnc1N1Cc2cc(C(F)(F)F)cnc2C(C)C1 (stereo not drawn)"
  EC50 (nM): 992
- molecule: "Cc1c(Cl)nc(C2CC2)nc1N1CCc2ncccc2C1"
  EC50 (nM): 2240

Problem: Would you mind telling me what EC50 value was observed for "Cc1cc(C#N)cnc1N1CCc2ncc(-c3ccc(N(C)C)nc3)cc2C1" ?
Result: 470

Problem: Now give it for "Cc1cc(C(=O)NCc2ccc3c(c2)CC(=O)N3)cnc1N1CCc2ncccc2C1" too.
Result: 6560

Problem: Now give it for "Cc1nc(Cl)c(C)c(N2CCc3ncc(-c4c(C)noc4C)cc3C2)n1" too.
Result: 63

Problem: Now give it for "Cc1cc(C(=O)N2CC(F)(F)C2)nnc1N1CCc2ncc(CC(F)(F)F)cc2C1" too.
Result: 121
